Origin of values: paper PMC12752606

test: Plasma pharmacokinetics after IV and PO administration; type: in vivo, male Sprague–Dawley rats; settings: male, Sprague-Dawley, rat, plasma, iv, 1 mg/kg, IV 1 mg/kg, 2 h, individual rats R01-R03; read-out: Plasma concentration
measure: concentration at 2 h (ng/mL)

* Cc1ccc(Nc2ncc3c(n2)N(C)C(=O)N(c2cccc(N)c2)C3)cn1 | 2.35

---

Assay: Plasma pharmacokinetics after IV and PO administration
Type: in vivo, male Sprague–Dawley rats
Settings: male, Sprague-Dawley, rat, plasma, po, 10 mg/kg, PO 10 mg/kg, 0.25 h; read-out: Plasma concentration, mean
Method: LZQ‐02‐023‐1 was administered to male Sprague–Dawley (SD) rats (n = 3 per group) via intravenous injection at a dose of 1 mg/kg or oral gavage at a dose of 10 mg/kg. Blood samples were collected at predetermined time points, and plasma concentrations of LZQ‐02‐023‐1 were determined using a validated LC‐MS/MS method. […] A 10 µL aliquot of the diluted supernatant was injected into an AB Sciex Triple Quad 5500 LC‐MS/MS system for quantitative analysis. […]
measure: concentration at 0.25 h (ng/mL)

* Cc1ccc(Nc2ncc3c(n2)N(C)C(=O)N(c2cccc(N)c2)C3)cn1 | 23.9
